# Lookup of reported pKd keyed by entry
# Target: T1, human recombinant TGF-β2 (human, UniProt P09858 303-414 (pig entry))
# T1 construct: also called hTGF-b2; hTGFbeta-2
# T1 sequence: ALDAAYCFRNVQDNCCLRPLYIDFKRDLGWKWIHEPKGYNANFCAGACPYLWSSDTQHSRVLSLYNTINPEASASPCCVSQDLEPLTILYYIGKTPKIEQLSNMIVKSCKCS
# Assay name: BiaCORE (surface plasmon resonance)
// pKd here means minus log10 of the molar concentration (mol/L)

Example entries begin here.
Consider the binder 1D11 (antibody, V domains shown) VH: QVQLQQSGPELVRPGASVKLSCKASGYIFITYWMNWVKQRPGQGLEWIGQIFPASGSTNYNEMFEGKATLTVDTSSSTAYMQLSSLTSEDSAVYYCARGDGNYALDAMDYWGQGTSVTVSS VL: DIVLTQSPASLAVSLGQRATISCRASESVDSYGNSFMHWYQQKSGQPPKLLIYLASNLESGVPARFSGSGSRTDFTLTIDPVEADDAATYYCQQNNEDPLTFGAGTKLEIK and give its recorded pKd. 9.93

Consider the binder MOR14805 (antibody, human IgG1, lambda, V domains shown) VH: QVQLVQSGAEVKKPGESLKISCKGSGYSFTRYYVAWVRQMPGKGLEWMGWIDPGTSNTRYSPSFQGQVTISADKSISTAYLQWSSLKASDTAMYYCARMLAWGWFDYWGQGTLVTVSS VL: SYELTQPLSVSVALGQTARITCSGDNLGGYYAHWYQQKPGQAPVLVIYDKSDRPSGIPERFSGSNSGNTATLTISRAQAGDEADYYCASYDSSLMMVFGGGTKLTVLG and give its recorded pKd. 12.01

Consider the binder MOR14797 (antibody, human IgG1, kappa, V domains shown, (no LALA)) VH: QVTLRESGPALVKPTQTLTLTCTFSGFSLSTSGMGVGWIRQPPGKALEWLAHIYWNDDKSYSTSLKTRLTISKDTSKNQVVLTMTNMDPVDTATYYCARDFYYSGYFDSWGQGTLVTVSS VL: DIQMTQSPSSLSASVGDRVTITCRASQDISNYLNWYQQKPGKAPKLLIFGASSLQSGVPSRFSGSGSGTDFTLTISSLQPEDFATYYCQQTNTMNTFGQGTKVEIKR and give its recorded pKd. 14.35

Consider the binder MOR14799 (antibody, human IgG1, lambda, V domains shown) VH: QVQLVQSGAEVKKPGESLKISCKGSGYSFTRYYVAWVRQMPGKGLEWMGWIDPGQSNTRYSPSFQGQVTISADKSISTAYLQWSSLKASDTAMYYCARMLAWGWFDYWGQGTLVTVSS VL: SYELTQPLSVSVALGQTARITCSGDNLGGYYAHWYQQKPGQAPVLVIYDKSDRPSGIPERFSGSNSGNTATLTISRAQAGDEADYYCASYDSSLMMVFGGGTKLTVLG and give its recorded pKd. 14.97

Others:
Consider the binder MOR14809 (antibody, human IgG1, lambda, V domains shown) VH: QVQLVQSGAEVKKPGESLKISCKGSGYSFTRYWIAWVRQMPGKGLEWMGIIDPGTSDTRYSPSFQGQVTISADKSISTAYLQWSSLKASDTAMYYCARIDKSLILHSAFDYWGQGTLVTVSS VL: SYELTQPLSVSVALGQTARITCSGDNLGGYYAYWYQQKPGQAPVLVIYETNNRPSGIPERFSGSNSGNTATLTISRAQAGDEADYYCASTTQDYLVFVFGGGTKLTVLG and give its recorded pKd. 13.28
